Origin of measurements: the supplement of paper PMC11061612

system: ES6 (Ewing's Sarcoma); assay: combination Emax (second highest fraction inhibited in the dose matrix, 72 h); higher = more inhibition; extreme values may be limits of the assay
Label scheme for combination Emax: lower than 0.6 is not fulfilled, 0.6 and above is fulfilled.

Consider the worked cases shown below.
compound: Cc1c2c(nn1C)CSCc1cc(n(C)n1)CSc1cc(c3ccccc3c1)OCCCc1c(C(=O)O)n(C)c3c-2c(Cl)ccc13 [AZD5991] + C=CCn1c(=O)c2cnc(Nc3ccc(N4CCN(C)CC4)cc3)nc2n1-c1cccc(C(C)(C)O)n1 [AZD1775] (first compound max 1 µM, partner max 1 µM)
group-label: not fulfilled
//
compound: COc1cccc2c1C(=O)c1c(O)c3c(c(O)c1C2=O)C[C@@](O)(C(=O)CO)C[C@@H]3O[C@H]1C[C@H](N)[C@H](O)[C@H](C)O1 [Doxorubicin] + Cc1cc2ncnn2cc1Nc1ncc2c(n1)n(C1CCOCC1)c(=O)n2C [AZD7648] (first compound max 1 µM, 7x7, partner max 10 µM)
group-label: not fulfilled
//
compound: O=C(c1cc(Cc2n[nH]c(=O)c3ccccc23)ccc1F)N1CCN(C(=O)C2CC2)CC1 [Olaparib] + CC1(C)CCC(CN2CCN(c3ccc(C(=O)NS(=O)(=O)c4ccc(NCC5CCOCC5)c([N+](=O)[O-])c4)c(Oc4cnc5[nH]ccc5c4)c3)CC2)=C(c2ccc(Cl)cc2)C1 [Venetoclax] (first compound max 10 µM, 7x7, partner max 1 µM)
group-label: not fulfilled
//
compound: C[C@@H](Oc1cc(-c2cnn(C3CCNCC3)c2)cnc1N)c1c(Cl)ccc(F)c1Cl [Crizotinib] + CC1=C(C(=CC=C1)Cl)NC(=O)C2=CN=C(S2)NC3=CC(=NC(=N3)C)N4CCN(CC4)CCO [Dasatinib] (first compound max 10 µM, 7x7, partner max 2 µM)
group-label: fulfilled

Next up:
Decide: is the reported value of combination Emax for O=C(c1cc(Cc2n[nH]c(=O)c3ccccc23)ccc1F)N1CCN(C(=O)C2CC2)CC1 [Olaparib] + COc1nnc2ccc(N3CCC(c4ccc(OCCN5CCN(C)C(=O)[C@H]5C)cc4)CC3)nn12 [AZD5153] (first compound max 10 µM, 7x7, partner max 1 µM) equal to or greater than 0.6?
not fulfilled

* * *

tested on: MDA-MB-415 (Breast Carcinoma); assay: Bliss excess, mean over the matrix (fraction); higher = more synergy;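 note: after 72 h of two-drug dosing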
measured-parameter: Bliss excess
Give your answer as a number; write no unit.

Example entries and their recorded answers appear below.
molecule: CN(C)CCCOc1ccc(-c2ccc3ncc4c(c3c2)n(C2CCOCC2)c(=O)n4C)cn1 [AZD0156] + O=C(c1cc(Cc2n[nH]c(=O)c3ccccc23)ccc1F)N1CCN(C(=O)C2CC2)CC1 [Olaparib] (first compound max 3 µM, partner max 3 µM)
quantitative-result: 0.0017
//
molecule: O=C(c1cc(Cc2n[nH]c(=O)c3ccccc23)ccc1F)N1CCN(C(=O)C2CC2)CC1 [Olaparib] + CC1(C)CCC(CN2CCN(c3ccc(C(=O)NS(=O)(=O)c4ccc(NCC5CCOCC5)c([N+](=O)[O-])c4)c(Oc4cnc5[nH]ccc5c4)c3)CC2)=C(c2ccc(Cl)cc2)C1 [Venetoclax] (first compound max 10 µM, 7x7, partner max 1 µM)
quantitative-result: -0.064
//
molecule: COc1cccc(OCCCN)c1-c1cc(Nc2cnc(C#N)cn2)n[nH]1 [Prexasertib] + Cc1cc2ncnn2cc1Nc1ncc2c(n1)n(C1CCOCC1)c(=O)n2C [AZD7648] (first compound max 1 µM, 7x7, partner max 10 µM)
quantitative-result: -0.0331

Please turn your attention to the following entry.
Given the molecule COc1nnc2ccc(N3CCC(c4ccc(OCCN5CCN(C)C(=O)[C@H]5C)cc4)CC3)nn12 [AZD5153] + C[C@@H]1COCCN1C2=NC(=NC(=C2)C3(CC3)[S@](=N)(=O)C)C4=C5C=CNC5=NC=C4 [AZD6738] (first compound max 1 µM, 7x7, partner max 10 µM) , what is its reported Bliss excess?
-0.0009
